Provenance of the data: the DeepSol protein solubility set

experiment: soluble on expression in E. coli; label from the status in PepcDB or PDB records
measure: soluble on expression in E. coli

>>> recorded_value("MSQEQLVAVNELNENLGKVLIKIARDSIANKLGILKINLEDYLSSLNDPILNKKGLAFVTLETYYGNSTSLRGCIGYVEAVAPLKEIVSKAAIAAAFSDPRFPPLSKGEFDNIIIEVTVLTKPQEIDVENRWELPKKIKVGEDGLIVEYGILYSGLLLPQVPMEYCWDEETFLAETCIKAGLEPDCWLNNKVKIKKFQGIIFREEKPKSEKILIIKPSEVKCKKEEISLL")
"soluble"
>>> recorded_value("MSLEKHNEHKTLNHKSSKEKDQITNRLKRIEGQVRGIQNMVENDRYCVDILVQISAVQAAMKNVALHLLEDHAHHCVADAIKSGDGEQAISELLDVFKKFTKSEGHHHHHH")
"soluble"

====

assay: soluble on expression in E. coli; label from the status in PepcDB or PDB records
measure: soluble on expression in E. coli

>>> recorded_value("MFSPQAYLIFNMRKPPFDNIKVRQAVMHAFNRKLVVDNIFFGLGKISTSPFVPTEMFFDKDIPAIPFDMKKARALIKESGINPGDYTIRQLSFPYGATWDRLGEYTKQALEQLGFKVNVESTDAGGWASRTGNWDFDLTTTYSYQYGDPALGVQRLYVTSNIVKGSPFANMQGYSNPESDKLWEQAAAEVDPAKRQELYNKIQALLVAEVANGFLVDME")
"not soluble"
>>> recorded_value("MLNARINQSIKCNQVRIHNVADKITWAELTKIEQLLKIIPQWEKLIKIQTTSKIFNSTSWVASWLETFWQKNWQLNVLIAWCDDELIAIVPLYYQQNNSILPMKVLYPLGQGEAEAQEISTEYTDILINEKFQEHLLPKIQQWILNLKADQLHWHALLHNSSTRNILADYEQTKSNEATRYIVNGLNWSLENLSKNMRSRYRRGLNQLDKLNATIDWVEQSDFDQYWQLMKKLHQKRWQGKNAKGAFCSDEFNQFHAKFREKSPKNIAMSAIWVNDTPIAIHYYFSDATTLYFYQSGWNESEYSHLSPGLILHLWTIENNNKPYYDFMMGKKKDSYKAKFATLQQPMYNITLTFSPIKLLFYSVFEKIKVKYLSA")
"not soluble"

====

assay: soluble on expression in E. coli; label from the status in PepcDB or PDB records
measure: soluble on expression in E. coli

>>> recorded_value("GMSTSPADTARYNRFVADLFGMMAYGELSAFERFSADARYSPTLHDRAVLGRIAVVEFRHYELVSARLEAMGIDAEDAMLPFQAAVDYFHSRTRPADWYESLMKAYVIDTVSADFYRAISRYVDAGTRDVIEQIQASDETTEVLRERLRSALADDPRLASRLALWGRRLLGEALTQAQRVSYEHAFLGSLIGGEDSAAAKELVSGLIAGLAEKHSKRMTQLGLTG")
"soluble"
>>> recorded_value("MAIYILEDQIIQAKALEVLLTNILHSRNIYNETIHLFSRSDELLQVAHQDAQLNIFFLDIQMNNHIQAGFEVAKEIRKTDSESLIVFISTHTELVLTSYKYMVSALQFIQKNVDFLDFQKEVETCVDAYIQQKENIKTKSEYIIINLKASSIKMDINDIYFFQTEYDHRVSMVGKNFKREFYGTLSKIEQLHPDLIRVHQSIIINKKYASKLNYKTHLLTMRDGTEVPVSRRYYTQVKALFLT")
"not soluble"
>>> recorded_value("MVGHKYPVKCLEVDKSKGRLVVSHRRAMAERQMEHLKTGALVEGTVQGVKPYGVFVDVFGTSGLLHISQISHDQVANIQSLFLPGEKVKCMVVSFDKQRGRISLSTKALEPHPGDMLRNKQLVYEKAEEMALSYNQRMDSPVRSKNTTSSSTDDIIAGLDIGSLDDLDPILFGTHTNSSNSNTHSDHLKQDSMNGTIPESDI")
"not soluble"
>>> recorded_value("MGSDKIHHHHHHSDLTSAQVAERLLVSQPKISLLENGHRAISPRDVRDLCELYGVTDRQVIDSLMRMARESGQQGWWNTYGNIPNSVYIGLETDASSIHTYEPMVIPDLLQTPAYAHAVIETTVPPIPAQQADARLKVRLRRQHRIYDPARPLRLWVVLDEPALHRVVGRPDIMREQLEHLNALSAEPHITVQVLPYTAGAHPGRQGQFSVLRFADSPEAGMVYLERFTSDLYLKKPSEVQQYSMMYDHLQARALSPEGTRDFVTDVTKSHIDVASRP")
"not soluble"
>>> recorded_value("MSLRYDRAGDQHYDVASALIKSMRGSDVDAALHYLARMVEAGEDPRFIARRIVIAAAEDVGMADPSALQTAVAAMHAVAQIGMPEARIVLAQAVVHNATAPKSNAAYAGINAAIADVRAGLGGSVPAHLRDAHYAGAGKLGHGKGYVYTHDVPAGVAEQQYAPDELVGKDYYVPTDRGFENQLRERLARLRRVLRGREGHHHHHH")
"soluble"

API: the following record is the query input.
# soluble on expression in E. coli lookup, item MTSSNKLHEVDKDQQSAFDITGRYQTISAHPTKEFSKPTLAAGAVLWRHSSTITENPAVEFAVIHRPHYDDWSLAKGKVDPGESLPVTAEREIREETGHHVHLGKLLGKVSYPVGERTKVVYYWIAQVHDEAFEENNEVDELRWLPYTEARELLSYDVDRLVLDKAYKRLALPTTTRVILVRHAKAHQRHNWAGNDSIRPLEKKGQRQADLLGPMLAAYGPTSIHSATPARCQQTAAPLSELTGLEVVVDDRFDDEAWLSRMTVAQKACEELIATPGTHVVVSQGLFIPDAIAWLSAQGRLPLETIEAKKASAWVLSFHEGELTGADYLVSPLGVK
not soluble

====

test: soluble on expression in E. coli; label from the status in PepcDB or PDB records
measure: soluble on expression in E. coli

>>> recorded_value("MTTPYCFNLAMRKSSRLITQFYEDRLSAVGLKSGQFSILKAVSFLKQTSNKELQGILVLDQTTLSRNLKPLFRDGYLKLSPDSNDARVKLISLTTQGQALYEKADPLWQKAQDDLEKKLGSEEVKNILTLADSFVKALAR")
"not soluble"
>>> recorded_value("GPGSMAVPDDNAEEVELLLSISPEVVCRDPTHSSTLVFLLPFRFVLHVTLPPRGYPDVSRPSLFVAAGPNAHLVNQFSSQLNKALREEVPLGGPMLLHIFTLAQDIATELQRTREAEAQEAKARREAMESEAQLALAEREASSVEVWASDAITDRKSKFVAHMARVDSEAAVREVVMHLRSQKHIAEAAHPTIYAYRFTDSSGVVHHDSDDDGETGAASRIMFLLEQMKVDGYVVVVTRWFGGVLLGPDRFKHIMEVARSILLTIPQREKERGVRDWQDRQ")
"soluble"
>>> recorded_value("MGSDKIHHHHHHMTDCADAQGLIAKITGVCFNHQLNIIKNSEFVDNAQGRFFMRTELEGHFHCEQLLQDLRQVLPAQNHMTLVSAGKKRIVILVTKEAHCLGDLLMKAYYGGLNVEIAAVVGNHDVLRELVEKFDIPFHLVSHEGLDRIQHEQALLAAVSQYSPDYLVLAKYMRVLTPDFVAEYPNRILNIHHSFLPAFIGAAPYRQAWERGVKIIGATAHFVNNCLDEGPIIKQDVIPVDHSYSALEMAKAGRDVEKSVLSKALQLVLNEQVVVYGNKTIVF")
"not soluble"
>>> recorded_value("MGSDKIHHHHHHMRALSFIFIALILVGCNEPAKEITKPIRPIMWTKVKISPFEQIRTLSGIVAPVEATKLSFEVQGKIQTIEVNLGNEVVKGQELARLNQRNFNLGLQSAQAQYQQAKATLIDARNSHRRYEQLLKQGVVSQSGFDNAKATYDASKSAADVAQAQLDIASKNLQDSILLAPYDGIITKRLYEPSQQISAGQSLFEIEGKHGLEVHVMVPETLIRELRQLSILPIHFPVLPELTMQGQITEIGTRAEYANAFPVTAVLEGDNPLLRAGMTAEVDFSFSGTGRTGHTGDVFRIPATALSAGLEQKAYVFVYNPDSQQVIKTQVQTENIFKNEVFISSGLKQGDIIAIAGVAFLRDGQQVSLTDNNVQRFN")
"not soluble"
>>> recorded_value("MKSVTVFLLAGTTFAIYFDGKGSRHSSSSSEEHGGHGPRPGPGGPGRGGNCSPGWLRFERQSGVWCVFVGLAGINDNSFAQKDGQSACVALGATLTGFQNDKERMAVADEAGRKLGAAGGGIAGLWLGATTRAGCKAGACGPLNTFMWTDGVTTGTAGLKWATGEPDSVDYPGTAACIQQFIMLPNWVPGPYDLEGFRTGFTHGILYKFSCIAPVTPGTRMFACGKMAAG")
"not soluble"

Take each entry in turn and give its soluble on expression in E. coli.
1. MNLHQTVEHEAAAAFAAAGIAGSPVVLQPTKNAEHGDFQINGVMGAAKKAKQNPRELAQKVADALAGNAVIESAEVAGPGFINLRLRHEFLAQNIHAALNDARF
2. MSLKVLLLDVDGTLLSFETHKVSQSSIDALKKVHDSGIKIVIATGRAASDLHEIDAVPYDGVIALNGAECVLRDGSVIRKVAIPAQDFRKSMELAREFDFAVALELNEGVFVNRLTPTVEQIAGIVEHPVPPVVDIEEMFERKECCQLCFYFDEEAEQKVMPLLSGLSATRWHPLFADVNVAGTSKATGLSLFADYYRVKVSEIMACGDGGNDIPMLKAAGIGVAMGNASEKVQSVADFVTDTVDNSGLYKALKHFGVIEGHHHHHH
3. MAHHHHHHMSGQAGKQVAPVKCKGWAVEKPALKWSTDAVRLSDVTVPAPDPTQIRVRVYAASINPVDWKRVMFPASGSGPGVAGSALKGFKGMHHKPPNYPYPYVVGVDGAGEVESVGRKVTGLKAGDRVMFHSSLTNAHGGSLCEYAVMEESVAVPIPADGARPFSYEEAAAIPCATWTAYVALFDKLRIEPGRSIFVDGASGAVGSCAVQLAHHMGLYVFASCSPSNADYVRSIGADQVLNYHDGIEMVDQILDATEGYGVDYYLAVTNTQDAESFTDALRFGGAVCLLSGVLIPNSNVLFRRQLSVHYVFLNGLHGHPLTRPQLRYIGDQVAKLYQSGAFRLDVEVLPFAEAAKALDRSATGNVNHKKLIVQVASP

1. not soluble
2. soluble
3. soluble

Quick request: soluble on expression in E. coli for each listed item, please.
1. GSHMEEPSDLEELEQFAKTFKQRRIKLGFTQGDVGLAMGKLYGNDFSQTTISRFEALNLSFKNMAKLKPLLEKWLNDAENLSSDSSLSSPSALNSPGIEGLSERRKKRTSIETNIRVALEKSFLENQKPTSEEITMIADQLNMEKEVIRVWFCNRRQKEKRINPPSS
2. MFKKLLHSLFAGLTFMAAVAAVPAHAQEADAQTTVKTAVDDVLATIKGDSDLRSGNMQKVFQLVDQKIVPRADFKRTTQIAMGRFWSQATPEQQQQIQDGFKTLLVRTYAGALANVRNQTVSYKPFRAAADDTDVVVRSTVNNNGEPVALDYRMEKSANGWKVYDINISGLWLSETYKNQFAEVISKRGGVSGLVQFLDERNAQLAKGPAKLEHHHHHH

1. soluble
2. soluble

Need soluble on expression in E. coli of MKRILCITGTRADFGKLKPLLAYIENHPDLELHLIVTGMHMMKTYGRTYKEVTRENYQHTYLFSNQIQGEPMGAVLGNTITFISRLSDEIEPDMVMIHGDRLEALAGAAVGALSSRLVCHIEGGELSGTVDDSIRHSISKLSHIHLVANEQAVTRLVQMGEKRKHIHIIGSPDLDVMASSTLPSLEEVKEYYGLPYENYGISMFHPVTTEAHLMPQYAAQYFKALELSGQNIISIYPNNDTGTESILQELLKYQSDKFIAFPSIRFEYFLVLLKHAKFMVGNSSAGIREAPLYGVPSIDVGTRQSNRHMGKSIIHTDYETKNIFDAIQQACSLGKFEADDTFNGGDTRTSTERFAEVINNPETWNVSAQKRFIDLNL , thanks.
not soluble
